Assign GI50 to each entry below.
- Test system: SN12C
- assay-overview: NCI human cancer cell line screen, antiproliferative activity, Renal SN12C
- Type: cell-based
- details: concentration corresponding to 50% growth inhibition, read-out: cytotoxicity GI50, Renal SN12C
Output spec: scalar in µM, unitless text.

Read off the recorded GI50 for CC1CCCC=CC2CC(O)CC2C(O)C([S+]([O-])C[C@H](N)C(=O)O)CC(=O)O1 (stereo partly shown) [Compound 21]
0.16

Look up and state reported GI50 for COc1ccc(S[C@@H]2CC(=O)OC(C)CCCC=CC3CC(O)CC3C2O)cc1 (stereo partly shown) [Compound 10]
30

For the compound CC1CCCC=CC2CC(O)CC2C(O)[C@H](CC(=O)O)CC(=O)O1 (stereo partly shown) [Compound 6] , give its reported GI50.
39

====

Record form. Attribute: GI50. Fill in for each entry.
- System: SN12C
- assay-overview: NCI human cancer cell line screen, antiproliferative activity, Renal SN12C
- Format: cell-based
- details: concentration corresponding to 50% growth inhibition, read-out: cytotoxicity GI50, Renal SN12C
- Description: The new synthesized brefeldin A prodrug candidates and analogs were examined for antiproliferative activity against human cancer cell lines in the National Cancer Institute screen, in which the activity of each compound was evaluated with approximately 55 different cancer cell lines of diverse tumor origins.
Your answer should be a plain number; it is taken to be in nM.

Provide GI50 value for the following compound: CC1CCCC=CC2CC(O)CC2C(O)C(SCCN(C)C)CC(=O)O1 (stereo not shown)
1400

Answer with reported GI50 of C[C@H]1CCC/C=C/[C@@H]2C[C@H](O)C[C@H]2[C@H](O)/C=C/C(=O)O1
90

Input C[C@H]1CCC/C=C/[C@@H]2C[C@H](O)C[C@H]2[C@H](O)[C@H]([S+]([O-])c2ccc(O)cc2)CC(=O)O1 (stereo partly shown) , output reported GI50.
50

Name the recorded GI50 of the item C[C@H]1CCC/C=C/[C@@H]2C[C@H](O)C[C@H]2[C@@H](O)[C@H]([S+]([O-])CCN(C)C)CC(=O)O1 (stereo partly shown) in your answer.
150

====

Provide the recorded GI50 for the entries that follow.
- Test system: SF-539
- assay-overview: NCI human cancer cell line screen, antiproliferative activity, CNS SF-539
- Format: cell-based
- details: concentration corresponding to 50% growth inhibition, read-out: cytotoxicity GI50, CNS SF-539
Write the value in nM as a bare number.

Quick one: give measured GI50 for C[C@H]1CCC/C=C/[C@@H]2C[C@H](O)C[C@H]2[C@H](O)[C@H]([S+]([O-])c2ccc(O)cc2)CC(=O)O1 (stereo partly shown)
17

Give reported GI50 value for COc1ccc(S[C@@H]2CC(=O)OC(C)CCCC=CC3CC(O)CC3C2O)cc1 (stereo partly shown)
26000

Indicate the recorded GI50 value for this molecule: CC1CCCC=CC2CC(O)CC2C(O)[C@H](SCC(O)CO)CC(=O)O1 (stereo partly shown)
32000

Read the entry C[C@H]1CCC/C=C/[C@@H]2C[C@H](O)C[C@H]2[C@@H](O)[C@H]([S+]([O-])CCN(C)C)CC(=O)O1 (stereo partly shown) and write its reported GI50.
300

Query GI50 for CC1CCCC=CC2CC(O)CC2C(O)C([S+]([O-])C[C@H](N)C(=O)O)CC(=O)O1 (stereo partly shown)
38

Identify measured GI50 corresponding to CC1CCCC=CC2CC(O)CC2C(O)C(O)C(O)C(=O)O1 (stereo not shown) [Compound 26, 2,3-Dihydro-2,3-dihydroxybrefeldin A]
680

Hello, the source for this data is patent US6362218B1, in case you need it.
